# Plant response rating, Morningglory annotations
Tested on: morningglory (Ipomoea coccinea)
Assay Notes: Test C greenhouse herbicide test, pre- and postemergence
Assay type: in vivo
Condition Set: Postemergence, 250 g ai/ha; scale 0 to 100, 0 no effect, 100 complete control; 13 to 15 d
Lab note: write the figure by itself, no unit.

| Molecule Smiles | Experimental Endpoint | Endpoint Value |
| --- | --- | --- |
| Cc1nn(C)c(=O)c(-c2c(C)sc3ccc(Br)cc23)c1O | Plant response rating, Morningglory | 100 |
| CCc1sc2ccc(C)cc2c1-c1c(O)c(C)nn(C)c1=O | Plant response rating, Morningglory | 100 |
| Cc1nn(C)c(=O)c(-c2ccc(Br)c3ccccc23)c1O | Plant response rating, Morningglory | 75 |

Consider now this further molecule.
Quote Plant response rating, Morningglory reported for `Cc1ccc2sc(C)c(-c3c(OC(=O)C(C)(C)C)c(C)nn(C)c3=O)c2c1` please.
100
